pKi: −log10 of the molar value.
Ok so here's the combined literature set: pKi for 5-hydroxytryptamine receptor 1E (Homo sapiens, UniProt P28566).

Entry CN1C2CCC1CC(OC(=O)c1c[nH]c3ccccc13)C2 (configuration not stated) under 5-hydroxytryptamine receptor 1E (Homo sapiens, UniProt P28566) had pKi of < 5.00

Entry `Cc1cc(NC(=O)Nc2ccc3c(ccn3C)c2)sn1` under 5-hydroxytryptamine receptor 1E (Homo sapiens, UniProt P28566) had pKi of < 5.00

Entry `Cc1cccc(S(=O)(=O)N2CCC[C@@H]2CCN2CCC(C)CC2)c1` under 5-hydroxytryptamine receptor 1E (Homo sapiens, UniProt P28566) had pKi of < 5.00

Entry `Cc1cccc(S(=O)(=O)N(C)[C@H](C)CCN2CCC(C)CC2)c1` under 5-hydroxytryptamine receptor 1E (Homo sapiens, UniProt P28566) had pKi of < 5.00

Entry `CC1CCN(CC[C@H]2CCCN2S(=O)(=O)c2cccc3ccccc23)CC1` under 5-hydroxytryptamine receptor 1E (Homo sapiens, UniProt P28566) had pKi of < 5.00

Entry `COc1ccc(NC(=O)c2ccc(-c3ccc(-c4noc(C)n4)cc3C)cc2)cc1N1CCN(C)CC1` under 5-hydroxytryptamine receptor 1E (Homo sapiens, UniProt P28566) had pKi of 5.40

Entry `CC1CCN(CC[C@H]2CCCN2S(=O)(=O)c2cccc(Br)c2)CC1` under 5-hydroxytryptamine receptor 1E (Homo sapiens, UniProt P28566) had pKi of 5.60
